Parameter minimal effective concentration: see the listing below.
Tested on: HepaRG spheroids
assay_summary: Combined HCI (HCS) and cellular ATP 3D assay in HepaRG spheroids
applied_conditions: Homo sapiens, HepaRG, read-out: HCS endpoint MEC

[
  {
    "compound": "CCOC(=O)CN[C@@H](C(=O)N1CC[C@H]1C(=O)NCc1ccc(/C(N)=N\\O)cc1)C1CCCCC1 [ximelagatran]",
    "minimal effective concentration, µM": 133
  },
  {
    "compound": "CS(=O)(=O)CCNCc1ccc(-c2ccc3ncnc(Nc4ccc(OCc5cccc(F)c5)c(Cl)c4)c3c2)o1 [lapatinib]",
    "minimal effective concentration, µM": 0.768
  },
  {
    "compound": "Cc1ccc(N(CC2=NCCN2)c2cccc(O)c2)cc1 [phentolamine]",
    "minimal effective concentration, µM": 18.1
  },
  {
    "compound": "Cn1cnc([N+](=O)[O-])c1Sc1ncnc2nc[nH]c12 [azathioprine]",
    "minimal effective concentration, µM": 0.0805
  },
  {
    "compound": "NCCCC(O)(P(=O)(O)O)P(=O)(O)O [alendronate]",
    "minimal effective concentration, µM": 0.58
  },
  {
    "compound": "NC(=O)N1c2ccccc2C=Cc2ccccc21 [carbamazepine, reference compound]",
    "minimal effective concentration, µM": 172
  },
  {
    "compound": "O=C(O)Cc1ccccc1Nc1c(Cl)cccc1Cl [diclofenac]",
    "minimal effective concentration, µM": 42.9
  },
  {
    "compound": "CCCCc1oc2ccccc2c1C(=O)c1cc(I)c(OCCN(CC)CC)c(I)c1 [amiodarone]",
    "minimal effective concentration, µM": 4.62
  },
  {
    "compound": "CN(Cc1cnc2nc(N)nc(N)c2n1)c1ccc(C(=O)N[C@@H](CCC(=O)O)C(=O)O)cc1 [methotrexate, reference compound]",
    "minimal effective concentration, µM": 0.2
  },
  {
    "compound": "C1CCC(C(CC2CCCCN2)C2CCCCC2)CC1 (stereo not drawn) [perhexiline]",
    "minimal effective concentration, µM": 0.693
  },
  {
    "compound": "CCN(CC)CC#CCOC(=O)C(O)(c1ccccc1)C1CCCCC1 (stereo not drawn) [oxybutynin]",
    "minimal effective concentration, µM": 10.3
  },
  {
    "compound": "CNC1(C)C2CCC(C2)C1(C)C (stereo not drawn) [mecamylamine]",
    "minimal effective concentration, µM": 12.2
  }
]

###

Test system: hLiMTs
assay_summary: Combined HCI (HCS) and cellular ATP 3D assay in hLiMTs
applied_conditions: hLiMTs; HCS endpoints; cut-off <100x Avg Cmaxu

[
  {
    "molecule": "CC(COc1ccccc1)N(CCCl)Cc1ccccc1 (stereo not drawn) [phenoxybenzamine]",
    "hLiMTs <100x Avg Cmaxu HCS": "-ve"
  },
  {
    "molecule": "CN(Cc1cnc2nc(N)nc(N)c2n1)c1ccc(C(=O)N[C@@H](CCC(=O)O)C(=O)O)cc1 [methotrexate, reference compound]",
    "hLiMTs <100x Avg Cmaxu HCS": "+ve (<100x Avg Cmaxu)"
  },
  {
    "molecule": "N[C@@H]1[C@H]2CN(c3nc4c(cc3F)c(=O)c(C(=O)O)cn4-c3ccc(F)cc3F)C[C@@H]12 [trovafloxacin]",
    "hLiMTs <100x Avg Cmaxu HCS": "+ve (<100x Avg Cmaxu)"
  },
  {
    "molecule": "CC(=O)N1CCN(c2ccc(OCC3COC(Cn4ccnc4)(c4ccc(Cl)cc4Cl)O3)cc2)CC1 (stereo not drawn) [ketoconazole, reference compound]",
    "hLiMTs <100x Avg Cmaxu HCS": "+ve (<100x Avg Cmaxu)"
  },
  {
    "molecule": "CS(=O)(=O)CCNCc1ccc(-c2ccc3ncnc(Nc4ccc(OCc5cccc(F)c5)c(Cl)c4)c3c2)o1 [lapatinib]",
    "hLiMTs <100x Avg Cmaxu HCS": "+ve (<100x Avg Cmaxu)"
  },
  {
    "molecule": "CC(=O)Oc1ccccc1C(=O)O [acetylsalicylic acid]",
    "hLiMTs <100x Avg Cmaxu HCS": "+ve (<100x Avg Cmaxu)"
  },
  {
    "molecule": "Clc1ccccc1CN1CCc2sccc2C1 [ticlopidine]",
    "hLiMTs <100x Avg Cmaxu HCS": "-ve"
  },
  {
    "molecule": "O=C1CN(/N=C/c2ccc(-c3ccc([N+](=O)[O-])cc3)o2)C(O)=N1 [dantrolene]",
    "hLiMTs <100x Avg Cmaxu HCS": "+ve (<100x Avg Cmaxu)"
  },
  {
    "molecule": "CC/C(=C(\\c1ccccc1)c1ccc(OCCN(C)C)cc1)c1ccccc1 [tamoxifen]",
    "hLiMTs <100x Avg Cmaxu HCS": "-ve"
  },
  {
    "molecule": "CN(C)C(=O)Oc1cccc([N+](C)(C)C)c1 [neostigmine]",
    "hLiMTs <100x Avg Cmaxu HCS": "-ve"
  },
  {
    "molecule": "Cc1c(C)c2c(c(C)c1O)CCC(C)(COc1ccc(CC3SC(=O)NC3=O)cc1)O2 (stereo not drawn) [troglitazone, reference compound]",
    "hLiMTs <100x Avg Cmaxu HCS": "-ve"
  },
  {
    "molecule": "Cc1cc2c(cc1CC(=O)c1sccc1S(=O)(=O)Nc1onc(C)c1Cl)OCO2 [sitaxsentan]",
    "hLiMTs <100x Avg Cmaxu HCS": "-ve"
  },
  {
    "molecule": "[H]/N=C(/N)N[C@H]1[C@H](O)[C@@H](O)[C@H](O[C@@H]2O[C@@H](C)[C@](O)(C=O)[C@H]2O[C@@H]2O[C@@H](CO)[C@H](O)[C@@H](O)[C@@H]2NC)[C@@H](N/C(N)=N\\[H])[C@@H]1O [streptomycin, reference compound]",
    "hLiMTs <100x Avg Cmaxu HCS": "-ve"
  },
  {
    "molecule": "O=c1[nH]c(=O)n([C@@H]2O[C@H](CO)[C@@H](O)[C@@H]2F)cc1I [fialuridine]",
    "hLiMTs <100x Avg Cmaxu HCS": "+ve (<100x Avg Cmaxu)"
  },
  {
    "molecule": "CCOC(=O)CN[C@@H](C(=O)N1CC[C@H]1C(=O)NCc1ccc(/C(N)=N\\O)cc1)C1CCCCC1 [ximelagatran]",
    "hLiMTs <100x Avg Cmaxu HCS": "-ve"
  }
]
